B1: RHOBTB3 (parent)
chain: STTEGIQLAKELGATYLELHSLDD

# Variants of: B1
# ASSAY_COMMENT: protein stability index of a GFP-peptide fusion (GPS, HEK-293T) (PSI 1-6); higher = more stable;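 note: lentivirally expressed fusions sorted by FACS into six bins by GFP to DsRed ratio, PSI derived from sequencing read proportions per bin multiplied by bin number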
# EXPERIMENTAL_CONTEXT: c terminus: a fixed tail appended
Give measured protein stability index for each item. Keep answers brief.
Lab note: write the figure by itself, no unit.

Value of protein stability index reported for the variant STTEGIHLAKELGATYLELHSLDD [Q7H] is 3.99

Per the records, this variant ( STTEGIQLAKELGATDLELHSLDD [Y16D] ) has protein stability index equal to 3.29

Data point: STTEGIQLAKELGATYAELHSLDD [L17A] ; protein stability index = 5.04

The variant listed as STTEGIQLPKELGATYLELHSLDD [A9P] has a reported protein stability index of 4.49

Per the records, this variant ( STTEGIQLAKELGATYLMLHSLDD [E18M] ) has protein stability index equal to 2.66

The variant listed as STTEGIQLAKELGATTLELHSLDD [Y16T] shows protein stability index equal to 4.28

variant STTEGLQLAKELGATYLELHSLDD [I6L] , protein stability index observed: 2.87

Notebook: STTEGIQLAKELGATYLELHHLDD [S21H] , protein stability index read as 3.38

Reported protein stability index ( STTEGIQLAKELLATYLELHSLDD [G13L] ) = 1.28

Consider STTEGIQLAKELGAYYLELHSLDD [T15Y] . Its measured protein stability index is 3.49

For record STTEGIQLAKNLGATYLELHSLDD [E11N] the listed protein stability index is 3.84

Item: STTEGIQLAKELGATYLELHSMDD [L22M] | protein stability index: 4.32

// sample STTEGIQLAKELGATYLEGHSLDD [L19G] , its protein stability index was 5.31

Form field protein stability index, entry STTELIQLAKELGATYLELHSLDD [G5L] : 3.64

protein stability index reported for this variant STTAGIQLAKELGATYLELHSLDD [E4A] : 3.66

Lab note: measured protein stability index of STTEGIQLAKELGATYLELHSSDD [L22S] was 4.47

Note to self: protein stability index recorded for STTEGIQLAKELGATYLEEHSLDD [L19E] was 4.76

// protein stability index value for STTEGINLAKELGATYLELHSLDD [Q7N] : 3.24

// protein stability index value for SGTEGIQLAKELGATYLELHSLDD [T2G] : 2.54

Entry STTEGIQLAKELGATYLELHWLDD [S21W] ; protein stability index = 1.03

Briefly, protein stability index measured for STTEGIQLAKELGATYQELHSLDD [L17Q] : 4.74

The value of protein stability index measured for the variant STTEGIQLAKELGATYMELHSLDD [L17M] turned out to be 4.11

# protein stability index of STTEGIQLAKELGAGYLELHSLDD [T15G] = 3.97

Please fill in: protein stability index reported for STTEHIQLAKELGATYLELHSLDD [G5H] = 3.26

protein stability index in this record for STTEGIQLAKELGATYLELHCLDD [S21C] : 3.14

Note to self: protein stability index recorded for STTEGIQFAKELGATYLELHSLDD [L8F] was 4.24

For this variant ( STTEGIQEAKELGATYLELHSLDD [L8E] ), measured protein stability index is 4.97

Given item STTHGIQLAKELGATYLELHSLDD [E4H] , the value recorded as its protein stability index is 3.37

Per the records, this variant ( STSEGIQLAKELGATYLELHSLDD [T3S] ) has protein stability index equal to 4.02

Reported protein stability index ( STTEGIQLAKDLGATYLELHSLDD [E11D] ) = 4.01

Lab book: protein stability index of STTEGIRLAKELGATYLELHSLDD [Q7R] noted as 2.19

STTEGIQLAKELGATYLELHSLFD [D23F] has a reported protein stability index of 1.71

Briefly, protein stability index measured for STTEGWQLAKELGATYLELHSLDD [I6W] : 2.7

Form field protein stability index, entry STTEGIQLAKELGATYLELHSEDD [L22E] : 5.93

Lab note: measured protein stability index of STTEGIQLAKELGATYLESHSLDD [L19S] was 5.01

Record summary for STTEGIQLAKLLGATYLELHSLDD [E11L] : reported protein stability index = 2.19

Quick note, protein stability index for STTQGIQLAKELGATYLELHSLDD [E4Q] landed at 2.71

For STTEGIQLAKELHATYLELHSLDD [G13H] the variant record lists protein stability index as 2.09

Lab book: protein stability index of STTEGIQLGKELGATYLELHSLDD [A9G] noted as 4.34

For SNTEGIQLAKELGATYLELHSLDD [T2N] the variant record lists protein stability index as 4.11

Just so you know, measured protein stability index for STTEGIQLAKELGATYCELHSLDD [L17C] came out at 4.14

Sample STTEGIQLAKELGATYLELSSLDD [H20S] ; protein stability index observed: 3.44

The recorded protein stability index for entry FTTEGIQLAKELGATYLELHSLDD [S1F] equals 2.39

STTEGIQLAKELEATYLELHSLDD [G13E] yielded protein stability index of 2.73

Lookup result for STTEYIQLAKELGATYLELHSLDD [G5Y] ; measured protein stability index: 2.91

variant STTEGIQLAKELGAVYLELHSLDD [T15V] , protein stability index observed: 2.17

Entry STTEGIQKAKELGATYLELHSLDD [L8K] ; protein stability index = 4.78

The variant STTEGIQLAKELGAQYLELHSLDD [T15Q] showed protein stability index equal to 4.33

Please fill in: protein stability index reported for STTEGIQLAKELGATYLELQSLDD [H20Q] = 3.13

protein stability index reported for this variant STTEGIQLAKELGATYLELHSCDD [L22C] : 4.01

The reported value for STTEGIQLAKELGATYLELTSLDD [H20T] in terms of protein stability index is 3.15

RTTEGIQLAKELGATYLELHSLDD [S1R] yielded protein stability index of 3.64

Value of measured protein stability index for the entry STTEGIQLAKELGATYLELHSLDH [D24H] : 2.44

So, STTEGIALAKELGATYLELHSLDD [Q7A] ? Its protein stability index was 3.7

For CTTEGIQLAKELGATYLELHSLDD [S1C] the variant record lists protein stability index as 2.86

Entry STTEGIQLAKELVATYLELHSLDD [G13V] — recorded protein stability index = 2.52

The recorded protein stability index for STTEGIQLAKELGITYLELHSLDD [A14I] is 3.31

protein stability index recorded for this variant, STTEGIQLQKELGATYLELHSLDD [A9Q] , is 3.52

// protein stability index value for STTEGIFLAKELGATYLELHSLDD [Q7F] : 3.37

# protein stability index of STTTGIQLAKELGATYLELHSLDD [E4T] = 3.67

For record STTWGIQLAKELGATYLELHSLDD [E4W] the listed protein stability index is 2.58

For record SSTEGIQLAKELGATYLELHSLDD [T2S] the listed protein stability index is 3.71

// recorded protein stability index for SPTEGIQLAKELGATYLELHSLDD [T2P] : 4.02

The value of protein stability index measured for the variant STTEGIQLAKELGATYLEWHSLDD [L19W] turned out to be 4.68

The reported protein stability index of the variant STTEGIQLAKELGASYLELHSLDD [T15S] was 3.71

The reported protein stability index of the variant STTEGIQLAKELGATYVELHSLDD [L17V] was 4.15

# protein stability index of STTEGIQLAKWLGATYLELHSLDD [E11W] = 1.73

Entry STTEGIQLAKELGATYLELHSLPD [D23P] ; protein stability index = 3.66

Consider STTEGIQLAKELGATKLELHSLDD [Y16K] . Its measured protein stability index is 4.81

Field protein stability index (entry STTEQIQLAKELGATYLELHSLDD [G5Q] ) reads 3.94

Reported protein stability index of STTEGIQLAKELGATYLELHSLTD [D23T] : 3.75

The variant listed as STTEGIQLAKELGATYLCLHSLDD [E18C] has a reported protein stability index of 2.62

According to the records, this variant STTEGIQLWKELGATYLELHSLDD [A9W] displays protein stability index of 2.64

Short answer for STTEGIQLAKELGATYLELHSLHD [D23H] : protein stability index was 3.71

Measured protein stability index of STTEGIQLAKELGATYLEFHSLDD [L19F] : 4.21

Field protein stability index (entry STTEGIQLAKELGATYFELHSLDD [L17F] ) reads 3.27

Field protein stability index (entry STTEGIQLAKELGATYLELHSYDD [L22Y] ) reads 4.41

protein stability index reading for STTEDIQLAKELGATYLELHSLDD [G5D] : 2.49

Quick note, protein stability index for STTEGIQLAKELGATYLELHSWDD [L22W] landed at 3.45

The variant listed as STTMGIQLAKELGATYLELHSLDD [E4M] shows protein stability index equal to 2.27

According to the records, this variant STTEGIQLAKELGATYLELHSDDD [L22D] displays protein stability index of 4.96

The variant listed as STTEGIQLAKELGATYLELHSLDR [D24R] shows protein stability index equal to 2.26

Form field protein stability index, entry STTEGIQLAKELGATYNELHSLDD [L17N] : 4.6

STTEGIQLAKELDATYLELHSLDD [G13D] has a reported protein stability index of 4.31

protein stability index measured on STTEGIQRAKELGATYLELHSLDD [L8R] = 4.41

The variant identified as STTEGIQLAKELGATYLELKSLDD [H20K] registered its protein stability index at 2.42

In plain terms, STTEGIQLAKEAGATYLELHSLDD [L12A] has a documented protein stability index of 5

// STTEGIQLAKEHGATYLELHSLDD [L12H] : protein stability index value = 4.78

Recorded protein stability index (variant STTEGIQLAKELGATYLELESLDD [H20E] ): 3.45

get_value(item= SCTEGIQLAKELGATYLELHSLDD [T2C] , readout=protein stability index) returns 3.31

What the record says about STTEGIQLAKELGATYLEMHSLDD [L19M] : protein stability index is 4.38
